Target: VR1 (rat) (Rattus norvegicus, UniProt O35433)
Construct: from tissue; host or cells: primary cells dissociated from rat dorsal root ganglia
Sequence (O35433 whole entry): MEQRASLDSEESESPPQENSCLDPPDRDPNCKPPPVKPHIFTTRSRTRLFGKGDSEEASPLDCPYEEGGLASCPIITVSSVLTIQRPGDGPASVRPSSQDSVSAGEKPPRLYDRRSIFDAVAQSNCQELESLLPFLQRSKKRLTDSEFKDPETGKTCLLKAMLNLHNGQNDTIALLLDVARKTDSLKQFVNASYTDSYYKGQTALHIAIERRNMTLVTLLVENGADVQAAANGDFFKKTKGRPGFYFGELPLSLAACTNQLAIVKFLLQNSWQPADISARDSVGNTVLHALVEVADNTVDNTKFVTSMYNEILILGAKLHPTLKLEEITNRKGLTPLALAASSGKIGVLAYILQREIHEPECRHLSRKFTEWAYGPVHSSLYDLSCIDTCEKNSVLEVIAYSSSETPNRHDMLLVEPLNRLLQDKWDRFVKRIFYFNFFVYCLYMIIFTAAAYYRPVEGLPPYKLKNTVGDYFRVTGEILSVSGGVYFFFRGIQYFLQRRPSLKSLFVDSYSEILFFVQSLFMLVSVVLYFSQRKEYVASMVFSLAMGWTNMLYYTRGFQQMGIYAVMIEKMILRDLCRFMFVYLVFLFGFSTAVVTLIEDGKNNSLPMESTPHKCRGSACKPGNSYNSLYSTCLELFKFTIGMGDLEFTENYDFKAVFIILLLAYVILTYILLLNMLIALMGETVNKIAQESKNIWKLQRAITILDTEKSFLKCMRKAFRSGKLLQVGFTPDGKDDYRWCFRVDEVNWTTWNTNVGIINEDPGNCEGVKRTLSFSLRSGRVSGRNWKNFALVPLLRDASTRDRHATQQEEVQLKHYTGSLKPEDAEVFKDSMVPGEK
Assay: Functional FLIPR Ca2+ inflow assay on rat-species vanilloid receptor 1 in rat dorsal root ganglia cells
Type: cell-based
Settings: test compound 10 μM, then 100 nM capsaicin after 5 min; relative to maximum inhibition with 10 μM capsaicin
Readout kind: VR1 (rat) (% inhibition compared to 10 μM CP) (%)

In [3]: df
Out[3]:
                                   compound  output_unit  experimental_value
0  CC(C)(C)[C@H]1CC[C@@]2(CC1)CC(C(=O)N1CCCN(c3ncccc3Cl)CC1)=NO2 [Example 22]            %               16.63
1  CC(C)(C)[C@H]1CC[C@@]2(CC1)CC(C(=O)N1CCN(c3nsnc3Cl)CC1)=NO2 [Example 17]            %               58.92
2  CC(C)(C)[C@H]1CC[C@@]2(CC1)CC(C(=O)NCc1ccncc1)=NO2 [Example 24]            %               97.79
3  COc1cc2c(cc1OC)CN(C(=O)C1=NO[C@]3(CC[C@@H](C(C)(C)C)CC3)C1)CC2 [Example 19]            %               95.49
4  CC(C)(C)C1CCC2(CC1)CC(C(=O)NCc1ccc(NS(C)(=O)=O)cc1)=NO2 (centres unmarked) [Example 3]            %              102.62

I = CC(C)(C)[C@H]1CC[C@@]2(CC1)CC(C(=O)N1CCN(c3ccc(O)cc3)CC1)=NO2 [Example 11]
II = CC(C)(C)C1CCC2(CC1)CC(C(=O)NCc1ccc(NS(C)(=O)=O)cc1)=NO2 (centres unmarked) [Example 2]
III = CC(C)(C)[C@H]1CC[C@]2(CC1)CC(C(=O)N1CCN(c3ccc(O)cc3)CC1)=NO2 [Example 10]
Sort low-to-high on VR1 (rat) (% inhibition compared to 10 μM CP), please. As an answer, provide the labels arranged in the order called for.
III, I, II
(III: 22.95%, I: 62.42%, II: 100.87%)

P = COc1cc2c(cc1OC)CN(C(=O)C1=NO[C@]3(CC[C@H](C(C)(C)C)CC3)C1)CC2 [Example 18]
Q = CC(C)(C)C1CCC2(CC1)CC(C(=O)N1CCCN(c3ncccc3Cl)CC1)=NO2 (centres unmarked) [Example 21]
Parameter metric = VR1 (rat) (% inhibition compared to 10 μM CP). Return the lower-valued option from P and Q . Label of pick, please.
Q
